Where do these numbers come from? They come from ChEMBL document CHEMBL1149524.

- tgt: Cathepsin S (Homo sapiens)
- Sequence (P25774 whole entry): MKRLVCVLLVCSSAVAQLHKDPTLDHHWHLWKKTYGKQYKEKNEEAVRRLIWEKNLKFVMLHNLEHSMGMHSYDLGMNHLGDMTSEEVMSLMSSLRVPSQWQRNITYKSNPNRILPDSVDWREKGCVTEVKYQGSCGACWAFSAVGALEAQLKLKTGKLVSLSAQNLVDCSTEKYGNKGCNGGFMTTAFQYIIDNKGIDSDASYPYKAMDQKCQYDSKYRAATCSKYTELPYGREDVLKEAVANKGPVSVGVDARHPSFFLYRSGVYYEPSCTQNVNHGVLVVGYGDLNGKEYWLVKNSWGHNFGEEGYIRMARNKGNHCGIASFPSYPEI
Consider the following molecules; for each one, report its pKi.
One number for each entry, as −log10 of the molar value.

molecule | pKi
C[C@@H](CN1CCc2cc(F)ccc21)NC(=O)[C@H](CC1CCCCC1)NC(=O)N1CCOCC1 | 7.06
O=C(N[C@@H](CC1CCCCC1)C(=O)NCCNc1ccc(OC(F)(F)F)cc1)c1ccco1 | 7.33
O=C(N[C@@H](CC1CCCCC1)C(=O)NCCNc1ccc(OC(F)(F)F)cc1)c1cc2ccccc2o1 | 7.77
O=C(N[C@@H](CC1CCCCC1)C(=O)NCCNc1ccc(OC(F)(F)F)cc1)C1CCOC1 (stereo not given in full) | 6.67

// below: pKi requested for another molecule
Ask: What pKi value was documented for this molecule, O=C(N[C@@H](CC1CCCCC1)C(=O)NCCNc1ccc(OC(F)(F)F)cc1)c1ccoc1 ?
Result: 8.22
